- Tested on: 786-0 renal
- assay protocol: NCI-60 one-dose screen, 48 h
- stated conditions: 10 µM unless noted
This is part of a sample that, as a whole, favours compounds with a hit. Of some 83,000 tested, about 20% had one in any assay. The source made the active and inactive calls. Rule for the calls: active = growth percent below 10; inactive = the rest.
Can you answer with just one of these options? 1 (yes) = active, 0 (no) = inactive

Please share the test call associated with COC(=O)c1c2c(c(C)[n+]([O-])c1C)C(=O)C=C(NCc1ccc(OC)cc1)C2=O .
1 (yes)

Please share the test call associated with N#C/C(=C\c1ccc(-c2ccc(Cl)cc2)o1)C(=O)Nc1ncc(Cc2ccc(Cl)cc2)s1 .
0 (no)

Please share the test call associated with Cc1c(-c2nc3ccc(F)cc3c(=O)[nH]2)c2ccccc2n1C .
0 (no)

Please share the test call associated with COc1ccccc1Nc1nc2c(s1)C1=CC[C@H]3[C@@H]4CC[C@H]([C@H](C)CCCC(C)C)[C@@]4(C)CC[C@@H]3[C@@]1(C)CC2 .
0 (no)

Please share the test call associated with Cc1cccnc1NC(=S)Nc1ncccc1C .
0 (no)

Please share the test call associated with COC(=O)c1cc(-c2ccc(S(C)(=O)=O)cc2)[nH]c1N/N=C/c1c(Cl)cccc1Cl .
1 (yes)

Please share the test call associated with CCC(C)N(c1ccc(Cl)cc1)c1nc(-c2ccc(Br)cc2)cs1 (centres undefined) .
0 (no)

Please share the test call associated with O=C(c1ccccc1)C1C(=O)N2C(=S)N(c3ccccc3)C(=O)C2C1c1ccc(Cl)cc1 (centres undefined) .
0 (no)

Please share the test call associated with O=C(Nn1c2c(sc1=NCc1ccccc1)C(=O)c1ccccc1C2=O)c1cc2ccc1CCc1ccc(cc1)CC2 .
0 (no)
